# TGT: UniProt Q80W57
# Sequence (Q80W57 whole entry): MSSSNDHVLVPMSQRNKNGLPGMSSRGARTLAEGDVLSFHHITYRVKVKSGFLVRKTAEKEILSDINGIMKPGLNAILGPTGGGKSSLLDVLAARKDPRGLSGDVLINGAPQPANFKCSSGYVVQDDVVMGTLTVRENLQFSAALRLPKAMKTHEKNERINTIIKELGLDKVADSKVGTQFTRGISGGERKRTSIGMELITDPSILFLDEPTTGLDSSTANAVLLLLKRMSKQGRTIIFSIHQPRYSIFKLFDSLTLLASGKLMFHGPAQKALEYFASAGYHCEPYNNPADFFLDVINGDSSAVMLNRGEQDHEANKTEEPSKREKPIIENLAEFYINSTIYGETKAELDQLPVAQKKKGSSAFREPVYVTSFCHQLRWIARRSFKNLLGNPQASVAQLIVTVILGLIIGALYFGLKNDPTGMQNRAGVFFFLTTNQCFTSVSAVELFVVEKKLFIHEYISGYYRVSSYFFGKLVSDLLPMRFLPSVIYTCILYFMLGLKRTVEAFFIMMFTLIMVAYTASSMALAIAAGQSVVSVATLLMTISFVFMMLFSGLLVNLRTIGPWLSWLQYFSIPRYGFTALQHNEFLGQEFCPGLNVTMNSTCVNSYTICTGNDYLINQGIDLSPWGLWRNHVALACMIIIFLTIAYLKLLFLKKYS
# ASSAY_NOTES: Asymmetry efflux ratio in MDCK2 cells expressing rat ABCG2 assessed as ABCG2-mediated drug transport ratio at 200 uM after 0.5 to 1 hrs by HPLC method
# Assay type: ADME, cell-based
PROPERTY_NAME: efflux ratio at 200 µM

{"ITEM_SMILES": "COc1ccnc(C[S@+]([O-])c2nc3cc(OC(F)F)ccc3[nH]2)c1OC", "efflux ratio at 200 µM": 1.07}
{"ITEM_SMILES": "COc1ccnc(C[S@@+]([O-])c2nc3cc(OC(F)F)ccc3[nH]2)c1OC", "efflux ratio at 200 µM": 1.29}

---

# ASSAY_NOTES: Asymmetry efflux ratio in MDCK2 cells assessed as drug transport ratio at 3 uM after 0.5 to 1 hrs by HPLC method
# Type: ADME, cell-based, Canis lupus familiaris, MDCK-II
# EXPERIMENTAL_PARAMETERS: dog, MDCK
PROPERTY_NAME: efflux ratio at 3 µM

{"ITEM_SMILES": "COc1ccnc(C[S@+]([O-])c2nc3cc(OC(F)F)ccc3[nH]2)c1OC", "efflux ratio at 3 µM": 1.01}
{"ITEM_SMILES": "COc1ccnc(C[S@@+]([O-])c2nc3cc(OC(F)F)ccc3[nH]2)c1OC", "efflux ratio at 3 µM": 1.01}

---

# TGT: UniProt:Q9UNQ0
# ASSAY_NOTES: Asymmetry efflux ratio in MDCK2 cells expressing human ABCG2 assessed as ABCG2-mediated drug transport ratio at 200 uM after 0.5 to 1 hrs by HPLC method
# Type: ADME, cell-based
PROPERTY_NAME: efflux ratio at 200 µM

{"ITEM_SMILES": "COc1ccnc(C[S@@+]([O-])c2nc3cc(OC(F)F)ccc3[nH]2)c1OC", "efflux ratio at 200 µM": 1.42}
{"ITEM_SMILES": "COc1ccnc(C[S@+]([O-])c2nc3cc(OC(F)F)ccc3[nH]2)c1OC", "efflux ratio at 200 µM": 1}

---

# TGT: ABCG2 (Homo sapiens)
# ASSAY_NOTES: Asymmetry efflux ratio in MDCK2 cells expressing human ABCG2 assessed as ABCG2-mediated drug transport ratio at 3 uM after 0.5 to 1 hrs by HPLC method
# Format: ADME, cell-based
PROPERTY_NAME: efflux ratio at 3 µM

I = COc1ccnc(C[S@@+]([O-])c2nc3cc(OC(F)F)ccc3[nH]2)c1OC
II = COc1ccnc(C[S@+]([O-])c2nc3cc(OC(F)F)ccc3[nH]2)c1OC
Compare I and II and name the one whose reported efflux ratio at 3 µM is smaller. Answer = label.
I

---

# TGT: UniProtKB Q80W57
# ASSAY_NOTES: Asymmetry efflux ratio in MDCK2 cells expressing rat ABCG2 assessed as ABCG2-mediated drug transport ratio at 50 uM after 0.5 to 1 hrs by HPLC method
# Type: ADME, cell-based
PROPERTY_NAME: efflux ratio at 50 µM

1 = COc1ccnc(C[S@@+]([O-])c2nc3cc(OC(F)F)ccc3[nH]2)c1OC
2 = COc1ccnc(C[S@+]([O-])c2nc3cc(OC(F)F)ccc3[nH]2)c1OC
// which entry has the larger efflux ratio at 50 µM value, 1 or 2 ? // respond with label for picked entry
1
(1: 2.46, 2: 1.26)

---

# ASSAY_NOTES: Asymmetry efflux ratio in MDCK2 cells assessed as drug transport ratio at 200 uM after 0.5 to 1 hrs by HPLC method
# Assay type: ADME, cell-based, Canis lupus familiaris, MDCK-II
# EXPERIMENTAL_PARAMETERS: dog, MDCK
PROPERTY_NAME: efflux ratio at 200 µM

{"ITEM_SMILES": "COc1ccnc(C[S@@+]([O-])c2nc3cc(OC(F)F)ccc3[nH]2)c1OC", "RECORDED_NUMBER": 0.98}
{"ITEM_SMILES": "COc1ccnc(C[S@+]([O-])c2nc3cc(OC(F)F)ccc3[nH]2)c1OC", "RECORDED_NUMBER": 0.99}

---

# ASSAY_NOTES: Asymmetry efflux ratio in MDCK2 cells assessed as drug transport ratio at 3 to 200 uM after 0.5 to 1 hrs by HPLC method
# Format: ADME, cell-based, Canis lupus familiaris, MDCK-II
# EXPERIMENTAL_PARAMETERS: dog, MDCK
PROPERTY_NAME: efflux ratio at up to 200 µM

{"ITEM_SMILES": "COc1ccnc(C[S@+]([O-])c2nc3cc(OC(F)F)ccc3[nH]2)c1OC", "efflux ratio at up to 200 µM": 1.04}
{"ITEM_SMILES": "COc1ccnc(C[S@@+]([O-])c2nc3cc(OC(F)F)ccc3[nH]2)c1OC", "efflux ratio at up to 200 µM": 1.04}

---

# TGT: ABCG2 (Homo sapiens)
# Sequence (Q9UNQ0 whole entry): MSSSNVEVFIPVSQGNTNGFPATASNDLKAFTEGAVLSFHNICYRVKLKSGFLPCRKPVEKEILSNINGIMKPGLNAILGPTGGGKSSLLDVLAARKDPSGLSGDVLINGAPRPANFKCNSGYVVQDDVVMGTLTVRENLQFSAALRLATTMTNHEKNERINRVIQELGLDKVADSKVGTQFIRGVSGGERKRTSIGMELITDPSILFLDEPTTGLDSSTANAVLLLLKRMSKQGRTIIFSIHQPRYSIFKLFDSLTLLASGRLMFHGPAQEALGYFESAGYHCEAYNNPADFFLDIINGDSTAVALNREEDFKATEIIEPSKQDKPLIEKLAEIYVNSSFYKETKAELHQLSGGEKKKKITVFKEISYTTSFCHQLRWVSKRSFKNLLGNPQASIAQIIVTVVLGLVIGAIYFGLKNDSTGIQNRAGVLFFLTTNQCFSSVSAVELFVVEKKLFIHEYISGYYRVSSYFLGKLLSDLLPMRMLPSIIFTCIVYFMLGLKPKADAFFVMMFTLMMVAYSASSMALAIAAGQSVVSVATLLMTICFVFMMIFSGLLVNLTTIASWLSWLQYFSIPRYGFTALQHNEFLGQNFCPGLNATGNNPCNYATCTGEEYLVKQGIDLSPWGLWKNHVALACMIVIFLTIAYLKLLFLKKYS
# ASSAY_NOTES: Asymmetry efflux ratio in MDCK2 cells expressing human ABCG2 assessed as ABCG2-mediated drug transport ratio at 10 uM after 0.5 to 1 hrs by HPLC method
# Type: ADME, cell-based
PROPERTY_NAME: efflux ratio at 10 µM

{"ITEM_SMILES": "COc1ccnc(C[S@@+]([O-])c2nc3cc(OC(F)F)ccc3[nH]2)c1OC", "RECORDED_NUMBER": 5.81}
{"ITEM_SMILES": "COc1ccnc(C[S@+]([O-])c2nc3cc(OC(F)F)ccc3[nH]2)c1OC", "RECORDED_NUMBER": 8.06}

---

# ASSAY_NOTES: Asymmetry efflux ratio in MDCK2 cells assessed as drug transport ratio at 10 uM after 0.5 to 1 hrs by HPLC method
# Assay type: ADME, cell-based, Canis lupus familiaris, MDCK-II
# EXPERIMENTAL_PARAMETERS: dog, MDCK
PROPERTY_NAME: efflux ratio at 10 µM

{"ITEM_SMILES": "COc1ccnc(C[S@@+]([O-])c2nc3cc(OC(F)F)ccc3[nH]2)c1OC", "efflux ratio at 10 µM": 1.07}
{"ITEM_SMILES": "COc1ccnc(C[S@+]([O-])c2nc3cc(OC(F)F)ccc3[nH]2)c1OC", "efflux ratio at 10 µM": 1.06}
